# Study system: ABCB1 (Homo sapiens)
# Sequence (P08183 whole entry): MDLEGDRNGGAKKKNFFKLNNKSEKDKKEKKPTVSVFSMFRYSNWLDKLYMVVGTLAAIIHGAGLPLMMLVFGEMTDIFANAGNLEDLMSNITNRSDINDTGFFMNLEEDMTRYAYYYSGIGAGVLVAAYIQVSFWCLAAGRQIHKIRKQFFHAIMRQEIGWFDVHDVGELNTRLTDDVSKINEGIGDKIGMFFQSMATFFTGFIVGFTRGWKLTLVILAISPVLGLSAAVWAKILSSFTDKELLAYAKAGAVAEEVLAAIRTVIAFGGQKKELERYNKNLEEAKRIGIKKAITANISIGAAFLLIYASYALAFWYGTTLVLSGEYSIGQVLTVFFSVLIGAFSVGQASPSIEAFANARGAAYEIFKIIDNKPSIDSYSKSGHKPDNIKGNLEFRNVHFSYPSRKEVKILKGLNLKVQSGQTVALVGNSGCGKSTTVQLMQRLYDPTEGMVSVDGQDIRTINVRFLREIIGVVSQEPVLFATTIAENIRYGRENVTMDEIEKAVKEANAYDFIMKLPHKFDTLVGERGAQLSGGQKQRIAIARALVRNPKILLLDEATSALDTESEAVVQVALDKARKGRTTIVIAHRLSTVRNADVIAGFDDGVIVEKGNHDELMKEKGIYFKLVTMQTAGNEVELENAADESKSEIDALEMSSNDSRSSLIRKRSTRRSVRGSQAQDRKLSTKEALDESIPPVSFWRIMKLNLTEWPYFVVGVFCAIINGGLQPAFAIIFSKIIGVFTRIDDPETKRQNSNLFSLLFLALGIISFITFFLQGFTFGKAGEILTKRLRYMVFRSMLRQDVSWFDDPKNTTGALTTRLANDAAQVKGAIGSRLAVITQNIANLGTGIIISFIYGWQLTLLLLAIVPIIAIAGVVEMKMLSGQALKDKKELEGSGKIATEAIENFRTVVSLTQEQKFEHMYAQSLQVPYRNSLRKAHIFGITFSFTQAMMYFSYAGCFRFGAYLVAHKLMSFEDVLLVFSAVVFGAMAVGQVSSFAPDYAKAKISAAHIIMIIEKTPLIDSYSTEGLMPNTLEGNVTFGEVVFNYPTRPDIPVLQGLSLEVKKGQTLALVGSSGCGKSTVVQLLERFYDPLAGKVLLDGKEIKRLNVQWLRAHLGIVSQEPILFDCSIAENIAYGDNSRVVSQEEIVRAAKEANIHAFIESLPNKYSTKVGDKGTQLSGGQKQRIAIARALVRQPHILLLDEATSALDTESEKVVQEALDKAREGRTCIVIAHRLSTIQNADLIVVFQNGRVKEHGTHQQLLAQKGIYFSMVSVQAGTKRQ
Reported property: pIC50
Schema: pIC50 number; meaning minus log10 of the concentration expressed in molar units.

IN: Endpoint output: pIC50 of COc1ccc(CCC2c3cc(OCc4ccccc4)c(OC)cc3CCN2C)cc1OCc1ccccc1 (racemic) . Value?
OUT: 7.20
